experiment: Viability of umbilical cord MSCs against eMTD peptide, absorbance analysis (ez-cytox, 450 nm; 'MTT assay'); type: cell-based; conditions: MTT assay, 1 μM eMTD, time 25 min; read-out: Cell viability (%)
Ends that are not written are not given here.

# sequence-chain, viability at 25 min, 1 μM / %
measured = [
    ("KLNFRQKLLNLISKLFCSGT [eMTD]", 18.5),
]

---

assay: Viability of umbilical cord MSCs against eMTD peptide, cell counting with trypan blue (TB assay); type: cell-based; conditions: umbilical cord-derived mesenchymal stem cells; TB assay, eMTD 0.5 μM, 15 minutes
Ends that are not written are not given here.
experimental-readout: viability at 15 minutes, 0.5 μM

# sequence-chain, value-reported
records = [
    ("KLNFRQKLLNLISKLFCSGT [eMTD]", "66.7%"),
]

---

assay: Viability of umbilical cord MSCs against eMTD peptide, cell counting with trypan blue (TB assay); type: cell-based; settings: umbilical cord-derived mesenchymal stem cells; TB assay, time 10 min
Ends that are not written are not given here.

# sequence-chain, viability at 10 min, %
rows = [
    ("KLNFRQKLLNLISKLFCSGT [eMTD]", 29.7),
]

---

test: Viability of umbilical cord MSCs against eMTD peptide, absorbance analysis (ez-cytox, 450 nm; 'MTT assay'); type: cell-based; settings: MTT assay, eMTD 20.0 μM, 15 minutes; read-out: Cell viability (%)
Ends that are not written are not given here.

# sequence-chain, reading-unit, viability at 15 minutes, 20 μM
records = [
    ("KLNFRQKLLNLISKLFCSGT [eMTD]", "%", 4.1),
]

---

assay: Viability of umbilical cord MSCs against eMTD peptide, cell counting with trypan blue (TB assay); assay type: cell-based; conditions: umbilical cord-derived mesenchymal stem cells; TB assay, eMTD 3.0 μM, 15 minutes
Ends that are not written are not given here.
experimental-readout: viability at 15 minutes, 3 μM (%)

# sequence-chain, reading-unit, value-reported
rows = [
    ("KLNFRQKLLNLISKLFCSGT [eMTD]", "%", 21.9),
]

---

assay: Viability of umbilical cord MSCs against eMTD peptide, absorbance analysis (ez-cytox, 450 nm; 'MTT assay'); format: cell-based; settings: cell viability
Ends that are not written are not given here.

# sequence-chain, viability at 15 minutes, 1 μM
measured = [
    ("KLNFRQKLLNLISKLFCSGT [eMTD]", "~50%"),
]

---

assay: Viability of umbilical cord MSCs against eMTD peptide, absorbance analysis (ez-cytox, 450 nm; 'MTT assay'); format: cell-based; conditions: MTT assay, 1 μM eMTD, time 20 min; read-out: Cell viability (%)
Ends that are not written are not given here.

# sequence-chain, viability at 20 min, 1 μM
measured = [
    ("KLNFRQKLLNLISKLFCSGT [eMTD]", "29.4%"),
]

---

Assay: Viability of umbilical cord MSCs against eMTD peptide, absorbance analysis (ez-cytox, 450 nm; 'MTT assay')
Type: cell-based
Details: MTT assay, 1 μM eMTD, time 30 min; read-out: Cell viability (%)
Protocol: Mesenchymal stem cells derived from the umbilical cord (Wharton's jelly-derived MSCs, WJ-MSCs) were assayed for viability by treatment with the eMTD peptide at predetermined concentrations for predetermined periods of time. […] Then, absorbance was read at 450 nm using a Bio-RAD x-Mark™ spectrophotometer (Bio-Rad Laboratories, USA). […] Absorbance was read at 450 nm using the Bio-RAD x-Mark™ spectrophotometer (Bio-Rad Laboratories, USA).
Ends that are not written are not given here.

# sequence-chain, viability at 30 min, 1 μM, %
rows = [
    ("KLNFRQKLLNLISKLFCSGT [eMTD]", 17.8),
]

---

assay: Viability of umbilical cord MSCs against eMTD peptide, absorbance analysis (ez-cytox, 450 nm; 'MTT assay'); assay type: cell-based; settings: MTT assay, eMTD 0.5 μM, 15 minutes; read-out: Cell viability (%)
Ends that are not written are not given here.
experimental-readout: viability at 15 minutes, 0.5 μM (%)

# sequence-chain, reading-unit, value-reported
data = [
    ("KLNFRQKLLNLISKLFCSGT [eMTD]", "%", 53.9),
]

---

assay: Viability of umbilical cord MSCs against eMTD peptide, absorbance analysis (ez-cytox, 450 nm; 'MTT assay'); assay type: cell-based; settings: MTT assay, 1 μM eMTD, time 10 min; read-out: Cell viability (%)
Ends that are not written are not given here.

# sequence-chain, reading-unit, viability at 10 min, 1 μM
measured = [
    ("KLNFRQKLLNLISKLFCSGT [eMTD]", "%", 41.8),
]

---

test: Viability of umbilical cord MSCs against eMTD peptide, cell counting with trypan blue (TB assay); format: cell-based; details: umbilical cord-derived mesenchymal stem cells; TB assay, time 25 min
Ends that are not written are not given here.
experimental-readout: viability at 25 min (%)

# sequence-chain, experimental-readout, value-reported
rows = [
    ("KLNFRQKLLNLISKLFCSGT [eMTD]", "viability at 25 min", 14.6),
]

---

assay: Viability of umbilical cord MSCs against eMTD peptide, cell counting with trypan blue (TB assay); assay type: cell-based; settings: umbilical cord-derived mesenchymal stem cells; TB assay, eMTD 5.0 μM, 15 minutes
Ends that are not written are not given here.

# sequence-chain, reading-unit, viability at 15 minutes, 5 μM
rows = [
    ("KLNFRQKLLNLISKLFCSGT [eMTD]", "%", 11.2),
]

---

assay: Viability of umbilical cord MSCs against eMTD peptide, absorbance analysis (ez-cytox, 450 nm; 'MTT assay'); format: cell-based; conditions: MTT assay, eMTD 3.0 μM, 15 minutes; read-out: Cell viability (%)
Ends that are not written are not given here.
experimental-readout: viability at 15 minutes, 3 μM (%)

# sequence-chain, value-reported
records = [
    ("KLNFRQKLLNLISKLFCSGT [eMTD]", 13.6),
]

---

assay: Viability of umbilical cord MSCs against eMTD peptide, absorbance analysis (ez-cytox, 450 nm; 'MTT assay'); format: cell-based; settings: MTT assay, eMTD 1.0 μM, 15 minutes; read-out: Cell viability (%)
Ends that are not written are not given here.
experimental-readout: viability at 15 minutes, 1 μM (%)

# sequence-chain, reading-unit, value-reported
rows = [
    ("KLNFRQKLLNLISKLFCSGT [eMTD]", "%", 57.4),
]

---

assay: Viability of umbilical cord MSCs against eMTD peptide, absorbance analysis (ez-cytox, 450 nm; 'MTT assay'); assay type: cell-based; details: MTT assay, eMTD 10.0 μM, 15 minutes; read-out: Cell viability (%)
Ends that are not written are not given here.
experimental-readout: viability at 15 minutes, 10 μM

# sequence-chain, experimental-readout, value-reported
records = [
    ("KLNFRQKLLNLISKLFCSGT [eMTD]", "viability at 15 minutes, 10 μM", "2.9%"),
]

---

Experiment: Viability of umbilical cord MSCs against eMTD peptide, cell counting with trypan blue (TB assay)
Type: cell-based
Settings: umbilical cord-derived mesenchymal stem cells; TB assay, time 5 min
Procedure: To measure the number of cells, umbilical cord-derived mesenchymal stem cells were seeded at a density of 2.5×10^4 cells/well into 12-well plates (30012, SPL) and incubated for 24 hours. […] After 15 minutes, the cells were counted using a trypan blue solution. […] After each period, the cells were counted using a trypan blue solution, and the results are depicted in FIG. 2 and summarized in Tables 5 and 6.
Ends that are not written are not given here.
experimental-readout: viability at 5 min

# sequence-chain, value-reported
records = [
    ("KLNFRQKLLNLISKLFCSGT [eMTD]", "40%"),
]

---

test: Viability of umbilical cord MSCs against eMTD peptide, absorbance analysis (ez-cytox, 450 nm; 'MTT assay'); type: cell-based; conditions: MTT assay, eMTD 5.0 μM, 15 minutes; read-out: Cell viability (%)
Ends that are not written are not given here.
experimental-readout: viability at 15 minutes, 5 μM (%)

# sequence-chain, experimental-readout, reading-unit, value-reported
rows = [
    ("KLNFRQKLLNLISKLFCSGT [eMTD]", "viability at 15 minutes, 5 μM", "%", 5.8),
]

---

assay: Viability of umbilical cord MSCs against eMTD peptide, cell counting with trypan blue (TB assay); assay type: cell-based; conditions: umbilical cord-derived mesenchymal stem cells; TB assay, eMTD 1.0 μM, 15 minutes
Ends that are not written are not given here.

# sequence-chain, viability at 15 minutes, 1 μM
data = [
    ("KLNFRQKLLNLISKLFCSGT [eMTD]", "66.3%"),
]

---

experiment: Viability of umbilical cord MSCs against eMTD peptide, cell counting with trypan blue (TB assay); assay type: cell-based; conditions: umbilical cord-derived mesenchymal stem cells; TB assay, time 30 min
Ends that are not written are not given here.

# sequence-chain, reading-unit, viability at 30 min
data = [
    ("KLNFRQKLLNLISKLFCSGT [eMTD]", "%", 15.6),
]

---

test: Viability of umbilical cord MSCs against eMTD peptide, cell counting with trypan blue (TB assay); assay type: cell-based; conditions: umbilical cord-derived mesenchymal stem cells; TB assay, time 15 min
Ends that are not written are not given here.

# sequence-chain, viability at 15 min, %
data = [
    ("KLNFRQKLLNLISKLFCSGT [eMTD]", 38.5),
]

Where these numbers come from: patent US20240043797A1
